I'd be grateful if you could share measured MFI for these entries.
Substrate: ICOS (Homo sapiens (Human)) (UniProt Q9Y6W8)
Sequence (Q9Y6W8 21-199 limits assumed): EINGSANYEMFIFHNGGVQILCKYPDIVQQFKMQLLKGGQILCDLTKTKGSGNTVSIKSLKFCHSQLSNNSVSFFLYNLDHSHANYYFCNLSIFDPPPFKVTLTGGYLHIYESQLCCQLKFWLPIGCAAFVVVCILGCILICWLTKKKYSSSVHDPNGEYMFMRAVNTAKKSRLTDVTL
Experiment: flow cytometry, transfected cells
Respond with the bare value in MFI.

Challenge: # return recorded MFI for entry ICOSL-Fc N52R/N57L/Q100S (Fc fusion) DTQEKEVRAMVGSDVELSCACPEGSRFDLNDVYVYWQTSESKTVVTYHIPQRSSLELVDSRYRNRALMSPAGMLRGDFSLRLFNVTPQDEQKFHCLVLSSSLGFQEVLSVEVTLHVAANFSVPVVSAPHSPSQDELTFTCTSINGYPRPNVYWINKTDNSLLDQALQNDTVFLNMRGLYDVVSVLRIARTPSVNIGCCIENVLLQQNLTVGSQTGNDIGERDKITENPVSTGEKNAAT
Response given: 231000

Challenge: # return recorded MFI for entry ICOSL-Fc N52S/N57L/Q100S (Fc fusion) DTQEKEVRAMVGSDVELSCACPEGSRFDLNDVYVYWQTSESKTVVTYHIPQSSSLELVDSRYRNRALMSPAGMLRGDFSLRLFNVTPQDEQKFHCLVLSSSLGFQEVLSVEVTLHVAANFSVPVVSAPHSPSQDELTFTCTSINGYPRPNVYWINKTDNSLLDQALQNDTVFLNMRGLYDVVSVLRIARTPSVNIGCCIENVLLQQNLTVGSQTGNDIGERDKITENPVSTGEKNAAT
Response given: 269000

Challenge: # return recorded MFI for entry ICOSL-Fc N52S/N57Y/Q100M (Fc fusion) DTQEKEVRAMVGSDVELSCACPEGSRFDLNDVYVYWQTSESKTVVTYHIPQSSSLEYVDSRYRNRALMSPAGMLRGDFSLRLFNVTPQDEQKFHCLVLSMSLGFQEVLSVEVTLHVAANFSVPVVSAPHSPSQDELTFTCTSINGYPRPNVYWINKTDNSLLDQALQNDTVFLNMRGLYDVVSVLRIARTPSVNIGCCIENVLLQQNLTVGSQTGNDIGERDKITENPVSTGEKNAAT
Response given: 303000
